Reference for the values: ChEMBL document CHEMBL2062435

# Tested on: Escherichia coli
# run description: Antimicrobial activity against extended spectrum beta-lactamases-producing Escherichia coli 10-2 after 18-24 hrs by two-fold serial dilution method
# Format: functional
metric name: MIC

compound	MIC
COc1cc(CO/N=C2\CN(c3nc4c(cc3F)c(=O)c(C(=O)O)cn4C3CC3)CC2CN)ccc1OC(F)F.CS(=O)(=O)O (racemic)	> 128 µg/mL
COc1ccc(CO/N=C2\CN(c3nc4c(cc3F)c(=O)c(C(=O)O)cn4C3CC3)CC2CN)cc1OC.CS(=O)(=O)O (racemic)	> 128 µg/mL
CS(=O)(=O)O.Cc1ccc(CO/N=C2\CN(c3nc4c(cc3F)c(=O)c(C(=O)O)cn4C3CC3)CC2CN)cc1C (racemic)	> 128 µg/mL
COc1ccc(CO/N=C2\CN(c3nc4c(cc3F)c(=O)c(C(=O)O)cn4C3CC3)CC2CN)c([N+](=O)[O-])c1OC.CS(=O)(=O)O (racemic)	> 128 µg/mL

Then there is this compound:
stdin: Identify measured MIC corresponding to CO/N=C1\CN(c2nc3c(cc2F)c(=O)c(C(=O)O)cn3C2CC2)CC1CN (stereo not given)
stdout: 16 µg/mL
